Values were extracted from patent US20210032365A1.

Target: T1, human C1s (human, UniProt P09871 16-688)
T1 construct: Analyte in the Biacore assays; also called hC1s; serum-derived human C1s (CompTech)
T1 sequence: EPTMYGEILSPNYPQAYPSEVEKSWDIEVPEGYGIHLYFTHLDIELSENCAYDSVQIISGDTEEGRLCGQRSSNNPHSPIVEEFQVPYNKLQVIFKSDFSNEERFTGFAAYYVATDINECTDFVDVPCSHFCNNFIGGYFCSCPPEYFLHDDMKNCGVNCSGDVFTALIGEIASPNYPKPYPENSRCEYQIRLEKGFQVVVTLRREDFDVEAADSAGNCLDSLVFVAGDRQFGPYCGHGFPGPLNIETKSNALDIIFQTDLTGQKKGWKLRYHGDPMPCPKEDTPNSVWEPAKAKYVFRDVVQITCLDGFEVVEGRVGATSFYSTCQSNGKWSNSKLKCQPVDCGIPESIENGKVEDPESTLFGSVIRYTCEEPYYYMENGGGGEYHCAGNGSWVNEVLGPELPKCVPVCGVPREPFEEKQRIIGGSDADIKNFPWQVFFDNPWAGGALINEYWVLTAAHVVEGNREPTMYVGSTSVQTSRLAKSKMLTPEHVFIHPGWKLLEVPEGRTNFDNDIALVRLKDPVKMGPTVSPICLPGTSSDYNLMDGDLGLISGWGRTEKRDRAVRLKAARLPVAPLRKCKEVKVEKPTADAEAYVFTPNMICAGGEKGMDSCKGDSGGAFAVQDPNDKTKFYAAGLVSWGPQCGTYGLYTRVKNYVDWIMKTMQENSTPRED
Assay: SPR; KD at pH 5.8 (3 uM Ca) over KD at pH 7.4 (1.2 mM Ca)
ENDPOINT: KD 5(-)/7(+)
One number for each entry.

binder="C1_IPN92H0281-SG4GK/IPN93L0091-SK1 (antibody, human IgG4 S228P, kappa, name in Kabat numbering, V domains shown, Substitutions from IPN009VH2 / IPN009VK3, Kabat numbering; also called IPN92H0281/IPN93L0091) VH: EVMLVESGGGLVKPGGSLRLSCAASGFTFSNYAMSWVRQAPGKGLEWVATISSGGSKTYELDSVDERFTISRDNSKDTLYLQMNSLRAEDTALYYCARLFTKHAMDYWGQGTLVTVSS VL: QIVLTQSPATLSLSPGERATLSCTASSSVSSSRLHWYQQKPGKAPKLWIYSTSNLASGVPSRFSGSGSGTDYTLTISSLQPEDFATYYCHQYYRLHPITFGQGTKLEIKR" result=0.82
binder="C1_IPN92H0033-SG4GK/IPN93L0072-SK1 (antibody, human IgG4 S228P, kappa, name in Kabat numbering, V domains shown, VL substitutions from IPN009VK3, Kabat numbering; also called IPN92H0033/IPN93L0072) VH: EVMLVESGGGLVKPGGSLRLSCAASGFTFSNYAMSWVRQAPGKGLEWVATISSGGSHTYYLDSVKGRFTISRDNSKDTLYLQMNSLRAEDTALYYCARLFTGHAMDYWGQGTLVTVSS VL: QIVLTQSPATLSLSPGERATLSCTASSSVKSSYLHWYQQKPGKAPKLWIYSTSNLASGVPSRFSGSGSGTDYTLTISSLQPEDFATYYCHQYYRLHPITFGQGTKLEIKR" result=4.18

Continue with the binder presented below.
Which KD 5(-)/7(+) value belongs to C1_IPN92H0061-SG4GK/IPN93L0024-SK1 (antibody, human IgG4 S228P, kappa, name in Kabat numbering, V domains shown, Substitutions from IPN009VH2, Kabat numbering; also called IPN92H0061/IPN93L0024) VH: EVMLVESGGGLVKPGGSLRLSCAASGFTKSNYAMSWVRQAPGKGLEWVATISSGGSHTYYLDSVKGRFTISRDNSKDTLYLQMNSLRAEDTALYYCARLFTGHAMDYWGQGTLVTVSS VL: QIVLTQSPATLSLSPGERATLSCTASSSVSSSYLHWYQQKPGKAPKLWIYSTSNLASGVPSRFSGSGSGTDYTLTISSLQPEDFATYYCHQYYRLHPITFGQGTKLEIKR ?
0.79
